System: Echinochloa crus-galli
procedure.details: Pre-emergence herbicidal activity against Echinochloa crus-galli (barnyard grass) assessed as growth inhibition at 1.5 ai kg/ha under green house conditions
Assay type: functional
The class of a record is decided solely by its measured growth inhibition (GI); consult small value: < 30%; mid value: ≥ 30% and < 70%; large value: ≥ 70%

compound="CCOP(=O)(OCC)C(OC(=O)COc1cccc(C(F)(F)F)c1)c1ccc(Cl)cc1 (centres undefined)" discrete_label="large value"
compound=COP(=O)([O-])COC(=O)COc1ccc(Cl)cc1Cl.[Na+] discrete_label="large value"
compound="COP(=O)(OC)C(C)OC(=O)COc1cccc(C(F)(F)F)c1 (centres undefined)" discrete_label="mid value"
compound="COP(=O)(OC)C(C)OC(=O)COc1cc(F)cc(F)c1 (centres undefined)" discrete_label="small value"
compound="CCCC(OC(=O)COc1ccc(Cl)cc1Cl)P(=O)([O-])OC.[K+] (centres undefined)" discrete_label="mid value"
compound="COP(=O)(OC)C(C)OC(=O)COc1ccccc1 (centres undefined)" discrete_label="small value"
compound="COP(=O)(OC)C(C)OC(=O)COc1cccc(F)c1 (centres undefined)" discrete_label="small value"
compound="COP(=O)(OC)C(OC(=O)COc1cccc(C(F)(F)F)c1)c1ccccc1Cl (centres undefined)" discrete_label="mid value"
compound="COP(=O)(OC)C(C)OC(=O)COc1cccc(Cl)c1Cl (centres undefined)" discrete_label="small value"
compound="COP(=O)(OC)C(C)OC(=O)COc1ccc(F)cc1F (centres undefined)" discrete_label="mid value"
compound="COP(=O)(OC)C(OC(=O)COc1ccc([N+](=O)[O-])cc1)c1ccccc1 (centres undefined)" discrete_label="small value"
compound="COP(=O)(OC)C(OC(=O)COc1cccc(C(F)(F)F)c1)c1ccc(C)cc1 (centres undefined)" discrete_label="large value"
compound="CCOP(=O)(OCC)C(OC(=O)COc1cccc(C(F)(F)F)c1)c1ccc2c(c1)OCO2 (centres undefined)" discrete_label="large value"
compound="O=C(COc1ccc(Cl)cc1Cl)OC(c1ccccc1Cl)P(=O)(O)O (centres undefined)" discrete_label="small value"
compound=O=C(O)COc1ccc(Cl)cc1Cl discrete_label="large value"
compound="COP(=O)(OC)C(OC(=O)COc1cccc(C(F)(F)F)c1)c1ccc(Cl)cc1 (centres undefined)" discrete_label="large value"

----------
Tested on: Brassica napus
procedure.details: Pre-emergence herbicidal activity against Brassica napus (oilseed rape) assessed as growth inhibition at 1.5 ai kg/ha under green house conditions
Type: functional
Quick rule for you: growth inhibition (GI) at 60% or higher means t, lower means f.

molecule="COP(=O)(OC)C(C)OC(=O)COc1cccc(Cl)c1Cl (stereo not given)" target_or_system="Brassica napus" discrete_label=f
molecule="COP(=O)(OC)C(C)OC(=O)COc1cccc(C(F)(F)F)c1 (stereo not given)" target_or_system="Brassica napus" discrete_label=f
molecule="COP(=O)(OC)C(C)OC(=O)COc1ccccc1 (stereo not given)" target_or_system="Brassica napus" discrete_label=f
molecule="COP(=O)(OC)C(OC(=O)COc1cccc(C(F)(F)F)c1)c1ccc2c(c1)OCO2 (stereo not given)" target_or_system="Brassica napus" discrete_label=t
molecule="COP(=O)(OC)C(OC(=O)COc1ccc(Cl)cc1Cl)c1ccccc1Cl (stereo not given)" target_or_system="Brassica napus" discrete_label=t
molecule="CCOP(=O)(OCC)C(OC(=O)COc1cccc(C(F)(F)F)c1)c1ccc2c(c1)OCO2 (stereo not given)" target_or_system="Brassica napus" discrete_label=f
molecule="COP(=O)(OC)C(C)OC(=O)COc1cc(F)cc(F)c1 (stereo not given)" target_or_system="Brassica napus" discrete_label=f
molecule="CCCC(OC(=O)COc1ccc(Cl)cc1Cl)P(=O)([O-])OC.[K+] (stereo not given)" target_or_system="Brassica napus" discrete_label=f
molecule="COP(=O)(OC)C(C)OC(=O)COc1ccc(Cl)cc1Cl (stereo not given)" target_or_system="Brassica napus" discrete_label=t
molecule="COP(=O)(OC)C(C)OC(=O)COc1ccc(F)cc1F (stereo not given)" target_or_system="Brassica napus" discrete_label=f
molecule="CCOP(=O)(OCC)C(C)OC(=O)COc1ccc(C)cc1 (stereo not given)" target_or_system="Brassica napus" discrete_label=t
molecule=COP(=O)([O-])COC(=O)COc1ccc(Cl)cc1Cl.[Na+] target_or_system="Brassica napus" discrete_label=t
molecule="COP(=O)(OC)C(C)OC(=O)COc1cccc(F)c1 (stereo not given)" target_or_system="Brassica napus" discrete_label=f
molecule="COP(=O)(OC)C(OC(=O)COc1ccc([N+](=O)[O-])cc1)c1ccccc1 (stereo not given)" target_or_system="Brassica napus" discrete_label=f
molecule=O=C(O)COc1ccc(Cl)cc1Cl target_or_system="Brassica napus" discrete_label=t
molecule="COP(=O)(OC)C(OC(=O)COc1cccc(C(F)(F)F)c1)c1ccc(Cl)cc1 (stereo not given)" target_or_system="Brassica napus" discrete_label=f
molecule="COP(=O)(OC)C(OC(=O)COc1cccc(C(F)(F)F)c1)c1ccc(C)cc1 (stereo not given)" target_or_system="Brassica napus" discrete_label=f
molecule="O=C(COc1ccc(Cl)cc1Cl)OC(c1ccccc1Cl)P(=O)(O)O (stereo not given)" target_or_system="Brassica napus" discrete_label=t
molecule="CCOP(=O)(OCC)C(OC(=O)COc1cccc(C(F)(F)F)c1)c1ccc(Cl)cc1 (stereo not given)" target_or_system="Brassica napus" discrete_label=f
